The values you see were collected from ChEMBL document CHEMBL5715937.

Measured pIC50 accompanies every entry in the list below.
# assay_method_text: cells
# run_conditions: Mus musculus, BaF3, 3 h
Here pIC50 is given on a logarithmic scale as minus log10 of the concentration in mol/L.

{"columns": ["entry_smiles", "recorded_result"],
 "data": [
  ["Cc1cn(-c2cc(NC(=O)c3ccc(C)c(Nc4nccc(-c5cccnc5)n4)c3)cc(C(F)(F)F)c2)cn1", 8.10]
]}

Summary for this molecule, Cc1ccc(NC(=O)c2ccc(CN3CCN(C)CC3)cc2)cc1Nc1nccc(-c2cccnc2)n1 : pIC50 is 6.30

----------
# assay_method_text: Inhibition of BCR-ABL E255K mutant (unknown origin) expressed in mouse BaF3 cells assessed as inhibition of cell growth incubated for 72 hrs by […] CellTiter96 viability analysis
# run_conditions: BaF3, 72 h
parameter: IC50 (nM)
Numeric answer only, unit nM assumed.

{"columns": ["molecule", "unit_info", "recorded_result"],
 "data": [
  ["Cc1ccc(NC(=O)c2ccc(CN3CCN(C)CC3)cc2)cc1Nc1nccc(-c2cccnc2)n1 [IMATINIB]", "nM", 5200],
  ["Cc1cn(-c2cc(NC(=O)c3ccc(C)c(Nc4nccc(-c5cccnc5)n4)c3)cc(C(F)(F)F)c2)cn1 [NILOTINIB]", "nM", 200]
]}

Would you kindly look at the next entry?
For record Cc1nc(Nc2ncc(C(=O)Nc3c(C)cccc3Cl)s2)cc(N2CCN(CCO)CC2)n1 [DASATINIB ANHYDROUS] the listed IC50 is 5.6
